# test summary: Inhibition of gamma-secretase-mediated notch cleavage after 2 hrs by ELISA
property name: IC50 (nM)

compound: C[C@@H]1N(S(=O)(=O)c2ccc(C(F)(F)F)nc2)[C@H](C2CC2)c2cn[nH]c2C1(F)F (relative stereo)
property name: IC50
unit annotation: nM
observed measurement: 20
//
compound: CC1(C)C(=O)c2[nH]ncc2C(C2CC2)N1S(=O)(=O)c1ccc(C(F)(F)F)cc1 (racemic)
property name: IC50
unit annotation: nM
observed measurement: 268

[a] C[C@@H]1C(=O)c2[nH]ncc2[C@H](C)N1S(=O)(=O)c1ccc(C(F)(F)F)nc1 (stereo in doubt)
[b] O=C1c2[nH]ncc2C(C2CC2)N(S(=O)(=O)c2ccc(C(F)(F)F)nc2)C12CC2 (racemic)
[c] O=C1c2[nH]ncc2C(C2CC2)N(S(=O)(=O)c2ccc(C(F)(F)F)cc2)C12CC2 (racemic)
Let's sort these by IC50, smallest first. Go ahead? Ranked list of labels, please, in the requested order.
b, c, a

[a] O=C1CN(S(=O)(=O)c2ccc(C(F)(F)F)cc2)C(C(F)(F)F)c2cn[nH]c21 (stereo not drawn)
[b] O=C1c2[nH]ncc2C(C2CC2)N(S(=O)(=O)c2ccc(C(F)(F)F)cn2)C12CC2 (stereo in doubt; 16i)
Record comparison, field IC50: mark the lower of a and b . API: response body contains the label of the selected item.
a
(a: 51 nM, b: 223 nM)

----------
# tested system: Gamma-secretase (Homo sapiens) (UniProt Q96BI3+Q9NZ42+Q8WW43+P49768+Q92542+P49810)
# test summary: Inhibition of gamma-secretase-mediated APP cleavage in human SNC cells by ELISA
# Assay type: cell-based
property name: ED50 (nM)

Solved entries (count: 3):
compound: O=C1c2[nH]ncc2C(C2CC2)N(S(=O)(=O)c2ccc(C(F)(F)F)cc2)C12CCCC2 (racemic)
property name: ED50
unit annotation: nM
observed measurement: 2
--
compound: O=S(=O)(c1ccc(C(F)(F)F)nc1)N1[C@H](C2CC2)c2cn[nH]c2C(F)(F)[C@H]1C1CC1 (stereo in doubt)
property name: ED50
unit annotation: nM
observed measurement: 0.2
--
compound: O=S(=O)(c1ccc(C(F)(F)F)cc1)N1C(C2CC2)c2cn[nH]c2C(F)(F)C1C1CC1 (stereo not drawn)
property name: ED50
unit annotation: nM
observed measurement: 6

[P] CC1C(=O)c2[nH]ncc2C(C2CC2)N1S(=O)(=O)c1ccc(C(F)(F)F)cc1 (stereo not drawn)
[Q] CC[C@@H]1c2cn[nH]c2C(F)(F)[C@H](CC)N1S(=O)(=O)c1ccc(C(F)(F)F)nc1 (relative stereo)
[R] CC[C@@H]1c2cn[nH]c2C(=O)[C@H](CC)N1S(=O)(=O)c1ccc(C(F)(F)F)nc1 (relative stereo)
Let's sort these by ED50, smallest first. Go ahead? Ranked list of labels, please, in the requested order.
Q, R, P
(Q: 6 nM, R: 21 nM, P: 2340 nM)

----------
# test summary: Inhibition of gamma-secretase-mediated APP cleavage assessed as amyloid beta40 level after 2 hrs by ELISA
property name: IC50 (nM)

[A] O=C1c2[nH]ncc2C(C2CC2)N(S(=O)(=O)c2ccc(C(F)(F)F)cc2)C1C1CC1 (racemic)
[B] CC[C@@H]1c2cn[nH]c2C(=O)[C@H](CC)N1S(=O)(=O)c1ccc(Cl)cc1 (stereo in doubt)
[C] O=S(=O)(c1ccc(C(F)(F)F)nc1)N1C(C2CC2)c2cn[nH]c2C(F)(F)C12CC2 (stereo in doubt; 17c)
Please rank these compounds by IC50 in descending order. Ranked list of labels, please, in the requested order.
C, A, B
(C: 56 nM, A: 0.4 nM, B: 0.1 nM)
